Biological target: DCAMKL2 (h) (Homo sapiens, UniProt Q8N568)
Construct: purchased Millipore
Sequence (Q8N568 1-766): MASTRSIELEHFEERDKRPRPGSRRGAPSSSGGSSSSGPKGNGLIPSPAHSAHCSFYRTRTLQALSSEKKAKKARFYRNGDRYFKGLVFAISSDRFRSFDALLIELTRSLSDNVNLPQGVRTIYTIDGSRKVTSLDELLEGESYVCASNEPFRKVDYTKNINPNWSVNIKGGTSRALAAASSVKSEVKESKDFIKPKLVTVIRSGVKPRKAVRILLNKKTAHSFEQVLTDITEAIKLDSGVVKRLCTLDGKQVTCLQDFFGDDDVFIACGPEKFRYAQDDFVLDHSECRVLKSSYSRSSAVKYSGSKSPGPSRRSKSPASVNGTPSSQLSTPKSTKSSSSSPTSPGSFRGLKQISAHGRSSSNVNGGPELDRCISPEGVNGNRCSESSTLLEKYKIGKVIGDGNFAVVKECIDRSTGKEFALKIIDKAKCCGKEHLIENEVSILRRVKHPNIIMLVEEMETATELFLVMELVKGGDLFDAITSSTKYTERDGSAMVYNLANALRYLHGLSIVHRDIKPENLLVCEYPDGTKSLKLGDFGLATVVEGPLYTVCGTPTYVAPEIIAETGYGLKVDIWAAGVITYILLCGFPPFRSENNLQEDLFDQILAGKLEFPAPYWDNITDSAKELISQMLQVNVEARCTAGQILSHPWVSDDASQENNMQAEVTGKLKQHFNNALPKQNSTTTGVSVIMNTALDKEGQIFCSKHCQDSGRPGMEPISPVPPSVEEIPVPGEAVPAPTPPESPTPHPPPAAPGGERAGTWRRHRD
Assay: Kinase Profiling Assay
Format: biochemical
Details: 100 μM
# % activity annotations

[
  {
    "input sequence": "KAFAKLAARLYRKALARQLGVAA [MMI-0400]",
    "endpoint unit": "%",
    "% activity": 70
  },
  {
    "input sequence": "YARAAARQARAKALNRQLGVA (Mammalian) [MMI-0200]",
    "endpoint unit": "%",
    "% activity": 131
  },
  {
    "input sequence": "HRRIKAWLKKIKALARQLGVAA (Mammalian) [MMI-0500]",
    "endpoint unit": "%",
    "% activity": 56
  },
  {
    "input sequence": "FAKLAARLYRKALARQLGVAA [MMI-0300]",
    "endpoint unit": "%",
    "% activity": 81
  }
]

###

Target: SAPK2b (h) (Homo sapiens, UniProt Q15759)
Sequence (Q15759 whole entry): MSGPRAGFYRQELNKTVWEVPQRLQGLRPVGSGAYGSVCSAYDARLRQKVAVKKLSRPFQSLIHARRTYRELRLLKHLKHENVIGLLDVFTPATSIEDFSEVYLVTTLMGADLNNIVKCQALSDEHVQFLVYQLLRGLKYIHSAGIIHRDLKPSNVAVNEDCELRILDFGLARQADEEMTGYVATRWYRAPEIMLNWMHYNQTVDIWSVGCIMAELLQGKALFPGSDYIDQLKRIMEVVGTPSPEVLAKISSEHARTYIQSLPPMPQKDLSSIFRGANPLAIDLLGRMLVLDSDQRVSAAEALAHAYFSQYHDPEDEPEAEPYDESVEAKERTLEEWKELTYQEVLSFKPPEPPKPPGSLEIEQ
Experiment: Kinase Profiling Assay
Format: biochemical
Details: 100 μM

[
  {
    "input sequence": "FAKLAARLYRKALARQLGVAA [MMI-0300]",
    "% activity, %": 81
  },
  {
    "input sequence": "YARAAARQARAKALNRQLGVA (Mammalian) [MMI-0200]",
    "% activity, %": 95
  },
  {
    "input sequence": "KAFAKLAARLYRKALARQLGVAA [MMI-0400]",
    "% activity, %": 82
  },
  {
    "input sequence": "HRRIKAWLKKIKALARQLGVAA (Mammalian) [MMI-0500]",
    "% activity, %": 42
  }
]

###

Target: AMPKα2 (h) (Homo sapiens)
Sequence (P54646 whole entry): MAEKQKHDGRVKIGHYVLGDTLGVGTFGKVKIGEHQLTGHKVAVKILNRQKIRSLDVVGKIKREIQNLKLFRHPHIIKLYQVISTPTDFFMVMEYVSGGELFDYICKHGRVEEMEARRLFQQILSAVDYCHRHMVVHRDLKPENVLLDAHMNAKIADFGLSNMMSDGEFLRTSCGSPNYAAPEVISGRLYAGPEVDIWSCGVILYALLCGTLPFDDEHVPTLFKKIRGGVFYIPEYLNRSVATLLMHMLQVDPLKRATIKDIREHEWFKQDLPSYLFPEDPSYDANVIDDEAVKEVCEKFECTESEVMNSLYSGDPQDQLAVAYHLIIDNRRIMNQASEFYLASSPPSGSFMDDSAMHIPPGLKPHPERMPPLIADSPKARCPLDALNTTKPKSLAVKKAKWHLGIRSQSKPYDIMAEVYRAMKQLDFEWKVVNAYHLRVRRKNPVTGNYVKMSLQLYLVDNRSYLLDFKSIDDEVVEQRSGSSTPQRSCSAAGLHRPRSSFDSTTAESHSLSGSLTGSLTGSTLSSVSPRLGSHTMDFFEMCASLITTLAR
Sequence (Q9Y478 whole entry partner): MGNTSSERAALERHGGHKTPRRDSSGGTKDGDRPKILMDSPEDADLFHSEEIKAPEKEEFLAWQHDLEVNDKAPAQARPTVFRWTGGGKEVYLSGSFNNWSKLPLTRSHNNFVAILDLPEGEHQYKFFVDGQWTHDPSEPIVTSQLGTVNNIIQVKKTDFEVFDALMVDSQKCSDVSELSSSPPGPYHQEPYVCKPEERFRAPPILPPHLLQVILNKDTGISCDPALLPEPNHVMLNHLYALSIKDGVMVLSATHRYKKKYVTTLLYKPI
Sequence (P54619 whole entry partner): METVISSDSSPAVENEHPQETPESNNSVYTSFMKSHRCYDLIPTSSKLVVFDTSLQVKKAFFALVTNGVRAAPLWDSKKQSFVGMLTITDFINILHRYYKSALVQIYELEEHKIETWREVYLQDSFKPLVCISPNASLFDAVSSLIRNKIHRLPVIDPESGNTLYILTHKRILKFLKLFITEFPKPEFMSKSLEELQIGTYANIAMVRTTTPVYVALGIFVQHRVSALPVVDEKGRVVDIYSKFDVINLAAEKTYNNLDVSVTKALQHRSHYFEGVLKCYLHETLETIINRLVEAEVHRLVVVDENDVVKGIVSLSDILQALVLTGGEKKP
Test: Kinase Profiling Assay
Assay type: biochemical
Conditions: 100 μM
recorded metric: % activity (%)

[
  {
    "input sequence": "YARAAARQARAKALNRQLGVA (Mammalian) [MMI-0200]",
    "assay value": 88
  },
  {
    "input sequence": "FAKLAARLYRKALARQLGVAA [MMI-0300]",
    "assay value": 54
  },
  {
    "input sequence": "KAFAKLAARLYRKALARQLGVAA [MMI-0400]",
    "assay value": 58
  },
  {
    "input sequence": "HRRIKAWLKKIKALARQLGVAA (Mammalian) [MMI-0500]",
    "assay value": 9
  }
]

###

Overview of reported % activity across a group of sequences:
Target: PASK (h) (Homo sapiens, UniProt Q96RG2)
Construct: purchased Millipore
Sequence (Q96RG2 whole entry): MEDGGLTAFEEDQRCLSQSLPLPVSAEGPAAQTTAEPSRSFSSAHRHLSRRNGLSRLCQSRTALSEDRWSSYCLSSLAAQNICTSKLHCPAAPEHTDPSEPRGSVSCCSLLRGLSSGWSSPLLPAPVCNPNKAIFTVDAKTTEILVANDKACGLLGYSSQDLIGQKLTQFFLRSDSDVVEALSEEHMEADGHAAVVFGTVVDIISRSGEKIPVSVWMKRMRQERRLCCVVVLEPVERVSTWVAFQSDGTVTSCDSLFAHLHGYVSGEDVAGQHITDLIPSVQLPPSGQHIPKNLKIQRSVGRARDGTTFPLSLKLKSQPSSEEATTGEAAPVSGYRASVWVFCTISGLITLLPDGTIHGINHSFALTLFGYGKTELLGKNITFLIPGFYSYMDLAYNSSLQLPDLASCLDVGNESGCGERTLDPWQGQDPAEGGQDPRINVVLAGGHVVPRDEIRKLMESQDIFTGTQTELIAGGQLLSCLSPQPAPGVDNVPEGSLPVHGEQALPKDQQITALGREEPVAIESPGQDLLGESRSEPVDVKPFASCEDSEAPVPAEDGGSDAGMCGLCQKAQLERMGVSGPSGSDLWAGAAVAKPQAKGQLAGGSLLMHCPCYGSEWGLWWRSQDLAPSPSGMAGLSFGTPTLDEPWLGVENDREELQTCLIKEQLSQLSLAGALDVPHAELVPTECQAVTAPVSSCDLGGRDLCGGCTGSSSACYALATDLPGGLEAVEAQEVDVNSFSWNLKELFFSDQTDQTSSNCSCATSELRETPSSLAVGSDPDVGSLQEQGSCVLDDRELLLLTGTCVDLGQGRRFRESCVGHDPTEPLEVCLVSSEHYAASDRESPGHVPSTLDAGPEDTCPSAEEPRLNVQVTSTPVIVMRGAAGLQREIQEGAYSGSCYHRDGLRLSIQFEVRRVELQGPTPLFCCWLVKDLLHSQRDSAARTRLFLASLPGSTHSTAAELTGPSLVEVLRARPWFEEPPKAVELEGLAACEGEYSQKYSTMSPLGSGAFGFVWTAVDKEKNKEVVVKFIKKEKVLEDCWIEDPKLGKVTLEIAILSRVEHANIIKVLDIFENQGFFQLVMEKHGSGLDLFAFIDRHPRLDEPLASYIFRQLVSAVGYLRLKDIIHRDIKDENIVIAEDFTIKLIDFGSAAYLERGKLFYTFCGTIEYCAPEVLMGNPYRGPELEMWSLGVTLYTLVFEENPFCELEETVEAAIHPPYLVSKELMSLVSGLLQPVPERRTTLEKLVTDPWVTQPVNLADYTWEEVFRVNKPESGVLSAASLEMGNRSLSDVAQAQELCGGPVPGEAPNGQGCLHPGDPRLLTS
Assay: Kinase Profiling Assay
Format: biochemical
Conditions: 100 μM

[
  {
    "input sequence": "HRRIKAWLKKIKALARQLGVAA (Mammalian) [MMI-0500]",
    "endpoint unit": "%",
    "% activity": 9
  },
  {
    "input sequence": "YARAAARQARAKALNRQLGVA (Mammalian) [MMI-0200]",
    "endpoint unit": "%",
    "% activity": 60
  },
  {
    "input sequence": "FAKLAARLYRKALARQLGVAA [MMI-0300]",
    "endpoint unit": "%",
    "% activity": 29
  },
  {
    "input sequence": "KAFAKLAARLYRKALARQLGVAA [MMI-0400]",
    "endpoint unit": "%",
    "% activity": 28
  }
]

###

Molecular target: SGK3 (h) (Homo sapiens, UniProt Q96BR1)
Sequence (Q96BR1 1-496): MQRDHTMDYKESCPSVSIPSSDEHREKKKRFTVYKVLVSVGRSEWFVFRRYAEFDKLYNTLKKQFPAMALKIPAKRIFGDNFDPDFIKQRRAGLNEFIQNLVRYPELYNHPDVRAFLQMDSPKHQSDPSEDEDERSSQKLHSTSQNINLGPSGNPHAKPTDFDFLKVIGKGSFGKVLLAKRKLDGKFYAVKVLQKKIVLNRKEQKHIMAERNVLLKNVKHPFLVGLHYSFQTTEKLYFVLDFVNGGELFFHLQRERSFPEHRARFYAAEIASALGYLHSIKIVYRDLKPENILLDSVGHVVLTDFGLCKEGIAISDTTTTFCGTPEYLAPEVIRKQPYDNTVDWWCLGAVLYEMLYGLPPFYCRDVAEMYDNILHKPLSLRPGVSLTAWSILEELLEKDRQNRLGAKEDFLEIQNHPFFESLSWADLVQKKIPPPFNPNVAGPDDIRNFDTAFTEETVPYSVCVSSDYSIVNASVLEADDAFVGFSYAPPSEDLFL
Test: Kinase Profiling Assay
Format: biochemical
Settings: 100 μM
Attribute: % activity

[
  {
    "input sequence": "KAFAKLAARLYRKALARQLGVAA [MMI-0400]",
    "% activity (%)": 8
  },
  {
    "input sequence": "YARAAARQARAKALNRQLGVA (Mammalian) [MMI-0200]",
    "% activity (%)": 58
  },
  {
    "input sequence": "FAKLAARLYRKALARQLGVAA [MMI-0300]",
    "% activity (%)": 10
  },
  {
    "input sequence": "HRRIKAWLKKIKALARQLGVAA (Mammalian) [MMI-0500]",
    "% activity (%)": "−3"
  }
]

###

Target: Tie2(Y897S) (h) (Homo sapiens, UniProt Q02763, Y897S)
Sequence (Q02763 23-1124 Y897S): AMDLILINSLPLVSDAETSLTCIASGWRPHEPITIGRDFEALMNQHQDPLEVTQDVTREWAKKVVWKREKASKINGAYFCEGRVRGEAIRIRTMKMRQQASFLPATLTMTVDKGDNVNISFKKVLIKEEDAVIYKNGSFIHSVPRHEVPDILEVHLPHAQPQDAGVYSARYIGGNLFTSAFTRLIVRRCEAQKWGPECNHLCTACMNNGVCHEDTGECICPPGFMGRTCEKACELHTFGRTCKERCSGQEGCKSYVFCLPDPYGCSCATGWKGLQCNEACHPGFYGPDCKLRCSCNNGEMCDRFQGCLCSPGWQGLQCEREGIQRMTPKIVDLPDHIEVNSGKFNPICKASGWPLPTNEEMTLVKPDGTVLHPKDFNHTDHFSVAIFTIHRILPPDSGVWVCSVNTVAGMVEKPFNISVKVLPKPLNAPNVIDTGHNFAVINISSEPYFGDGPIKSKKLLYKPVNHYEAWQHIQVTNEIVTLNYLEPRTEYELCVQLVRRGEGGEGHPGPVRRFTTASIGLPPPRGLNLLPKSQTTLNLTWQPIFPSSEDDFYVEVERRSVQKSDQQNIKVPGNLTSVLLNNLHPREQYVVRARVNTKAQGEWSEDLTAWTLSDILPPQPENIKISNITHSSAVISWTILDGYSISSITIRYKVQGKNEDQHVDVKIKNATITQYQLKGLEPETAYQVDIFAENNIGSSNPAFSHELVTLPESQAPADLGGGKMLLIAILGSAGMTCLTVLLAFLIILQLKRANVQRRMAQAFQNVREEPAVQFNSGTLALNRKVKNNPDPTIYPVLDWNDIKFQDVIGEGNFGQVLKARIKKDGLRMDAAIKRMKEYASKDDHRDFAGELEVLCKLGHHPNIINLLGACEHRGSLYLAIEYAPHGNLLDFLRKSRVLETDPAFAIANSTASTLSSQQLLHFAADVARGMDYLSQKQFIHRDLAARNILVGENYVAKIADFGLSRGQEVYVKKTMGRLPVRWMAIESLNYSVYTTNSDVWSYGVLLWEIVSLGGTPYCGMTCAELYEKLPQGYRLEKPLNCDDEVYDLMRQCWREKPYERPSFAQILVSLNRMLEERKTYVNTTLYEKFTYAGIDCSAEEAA
Experiment: Kinase Profiling Assay
Type: biochemical
Settings: 100 μM
Listed next: entries and their corresponding % activity.

[
  {
    "input sequence": "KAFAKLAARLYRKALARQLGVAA [MMI-0400]",
    "endpoint unit": "%",
    "% activity": 87
  },
  {
    "input sequence": "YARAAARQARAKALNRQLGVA (Mammalian) [MMI-0200]",
    "endpoint unit": "%",
    "% activity": 85
  },
  {
    "input sequence": "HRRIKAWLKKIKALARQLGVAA (Mammalian) [MMI-0500]",
    "endpoint unit": "%",
    "% activity": 80
  },
  {
    "input sequence": "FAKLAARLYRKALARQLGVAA [MMI-0300]",
    "endpoint unit": "%",
    "% activity": 83
  }
]

###

Listing of entries alongside the reported % activity.
System: CaMKI (h)
Experiment: Kinase Profiling Assay
Format: biochemical, human
Details: 100 μM
recorded metric: % activity (%)

[
  {
    "input sequence": "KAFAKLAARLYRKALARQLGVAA [MMI-0400]",
    "recorded metric": "% activity",
    "assay value": 0
  },
  {
    "input sequence": "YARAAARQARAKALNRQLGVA (Mammalian) [MMI-0200]",
    "recorded metric": "% activity",
    "assay value": 21
  },
  {
    "input sequence": "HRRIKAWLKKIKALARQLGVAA (Mammalian) [MMI-0500]",
    "recorded metric": "% activity",
    "assay value": "−1"
  },
  {
    "input sequence": "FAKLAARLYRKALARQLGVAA [MMI-0300]",
    "recorded metric": "% activity",
    "assay value": 1
  }
]

###

Target: EphB1 (h) (Homo sapiens)
Sequence (P54762 18-984): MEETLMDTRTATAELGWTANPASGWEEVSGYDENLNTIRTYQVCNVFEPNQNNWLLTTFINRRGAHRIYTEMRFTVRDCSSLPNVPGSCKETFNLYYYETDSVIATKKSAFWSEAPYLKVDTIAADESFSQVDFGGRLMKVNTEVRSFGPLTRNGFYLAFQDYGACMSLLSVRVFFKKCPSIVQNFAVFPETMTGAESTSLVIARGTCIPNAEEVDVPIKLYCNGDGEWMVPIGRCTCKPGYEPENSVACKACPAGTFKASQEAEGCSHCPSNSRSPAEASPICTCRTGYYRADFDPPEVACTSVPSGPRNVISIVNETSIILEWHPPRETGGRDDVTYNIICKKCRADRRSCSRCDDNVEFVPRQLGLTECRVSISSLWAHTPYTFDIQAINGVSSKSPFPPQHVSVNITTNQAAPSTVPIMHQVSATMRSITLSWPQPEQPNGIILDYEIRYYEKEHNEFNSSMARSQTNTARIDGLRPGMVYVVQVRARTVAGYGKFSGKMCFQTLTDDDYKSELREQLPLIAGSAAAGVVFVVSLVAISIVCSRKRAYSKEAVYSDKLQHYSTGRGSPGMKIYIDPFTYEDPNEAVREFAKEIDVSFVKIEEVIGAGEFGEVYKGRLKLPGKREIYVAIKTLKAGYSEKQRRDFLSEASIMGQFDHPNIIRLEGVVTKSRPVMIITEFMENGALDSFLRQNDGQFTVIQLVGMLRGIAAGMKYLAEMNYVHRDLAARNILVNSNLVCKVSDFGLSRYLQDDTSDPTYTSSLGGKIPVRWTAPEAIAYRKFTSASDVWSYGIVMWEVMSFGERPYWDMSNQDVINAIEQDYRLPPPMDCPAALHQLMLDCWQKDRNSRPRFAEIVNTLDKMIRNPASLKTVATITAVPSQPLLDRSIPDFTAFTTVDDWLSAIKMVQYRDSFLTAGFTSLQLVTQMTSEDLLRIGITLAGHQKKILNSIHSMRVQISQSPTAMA
Assay: Kinase Profiling Assay
Assay type: biochemical
Conditions: 100 μM
Measured % activity, listed per entry for reference.
recorded metric: % activity

[
  {
    "input sequence": "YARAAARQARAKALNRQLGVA (Mammalian) [MMI-0200]",
    "experimental target": "EphB1 (h) (Homo sapiens)",
    "assay value": "95%"
  },
  {
    "input sequence": "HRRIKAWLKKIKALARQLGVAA (Mammalian) [MMI-0500]",
    "experimental target": "EphB1 (h) (Homo sapiens)",
    "assay value": "37%"
  },
  {
    "input sequence": "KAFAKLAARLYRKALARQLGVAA [MMI-0400]",
    "experimental target": "EphB1 (h) (Homo sapiens)",
    "assay value": "58%"
  },
  {
    "input sequence": "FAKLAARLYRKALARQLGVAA [MMI-0300]",
    "experimental target": "EphB1 (h) (Homo sapiens)",
    "assay value": "44%"
  }
]

The values you see were collected from patent US10500249B2.
